- Test system: JHH-2 (Hepatocellular Carcinoma)
- assay info: combination Emax (second highest fraction inhibited in the dose matrix, 72 h); higher = more inhibition; extreme values may be limits of the assay
measured quantity: combination Emax
One number for each entry.

Look at this molecule and give its reported combination Emax. CN(C)CCCOc1ccc(-c2ccc3ncc4c(c3c2)n(C2CCOCC2)c(=O)n4C)cn1 [AZD0156] + C=CCn1c(=O)c2cnc(Nc3ccc(N4CCN(C)CC4)cc3)nc2n1-c1cccc(C(C)(C)O)n1 [AZD1775] (first compound max 1 µM, partner max 1 µM) 0.53

Look at this molecule and give its reported combination Emax. COc1nnc2ccc(N3CCC(c4ccc(OCCN5CCN(C)C(=O)[C@H]5C)cc4)CC3)nn12 [AZD5153] + CCN(CCO)CCCOc1ccc2c(Nc3cc(CC(=O)Nc4cccc(F)c4)[nH]n3)ncnc2c1 [AZD2811] (first compound max 1 µM, 7x7, partner max 1 µM) 0.416

Please give combination Emax for each item listed below.
1. CS(=O)(=O)CCNCc1ccc(-c2ccc3ncnc(Nc4ccc(OCc5cccc(F)c5)c(Cl)c4)c3c2)o1 [Lapatinib] + C[C@@H](Oc1cc(-c2cnn(C3CCNCC3)c2)cnc1N)c1c(Cl)ccc(F)c1Cl [Crizotinib] (first compound max 10 µM, 7x7, partner max 10 µM)
2. Cc1c2c(nn1C)CSCc1cc(n(C)n1)CSc1cc(c3ccccc3c1)OCCCc1c(C(=O)O)n(C)c3c-2c(Cl)ccc13 [AZD5991] + C=CCn1c(=O)c2cnc(Nc3ccc(N4CCN(C)CC4)cc3)nc2n1-c1cccc(C(C)(C)O)n1 [AZD1775] (first compound max 1 µM, partner max 1 µM)

0.882
0.58

###

I'd be grateful if you could share measured combination Emax for these entries.
- Tested on: GA-10 (Burkitt's Lymphoma)
- assay info: combination Emax (second highest fraction inhibited in the dose matrix, 72 h); higher = more inhibition; extreme values may be limits of the assay
Numbers only.

// worked examples, combination Emax included
Look at this compound and give its reported combination Emax. COc1cc2c(cc1OCCCCCOc1cc3c(cc1OC)C(=O)N1C=C(C)C[C@H]1C=N3)N=C[C@@H]1CC(C)=CN1C2=O [SG3199] + O=C(c1cc(Cc2n[nH]c(=O)c3ccccc23)ccc1F)N1CCN(C(=O)C2CC2)CC1 [Olaparib] (first compound max 0.001 µM, 7x7, partner max 10 µM) 0.324

Look at this compound and give its reported combination Emax. CC(=O)c1c(C)c2cnc(Nc3ccc(N4CCNCC4)cn3)nc2n(C2CCCC2)c1=O [Palbociclib] + Cc1c2c(nn1C)CSCc1cc(n(C)n1)CSc1cc(c3ccccc3c1)OCCCc1c(C(=O)O)n(C)c3c-2c(Cl)ccc13 [AZD5991] (first compound max 10 µM, 7x7, partner max 1 µM) 0.975

Look at this compound and give its reported combination Emax. CN(C)CCCOc1ccc(-c2ccc3ncc4c(c3c2)n(C2CCOCC2)c(=O)n4C)cn1 [AZD0156] + C=CCn1c(=O)c2cnc(Nc3ccc(N4CCN(C)CC4)cc3)nc2n1-c1cccc(C(C)(C)O)n1 [AZD1775] (first compound max 1 µM, partner max 1 µM) 0.988

Look at this compound and give its reported combination Emax. CN(C)CCCOc1ccc(-c2ccc3ncc4c(c3c2)n(C2CCOCC2)c(=O)n4C)cn1 [AZD0156] + CCN(CCO)CCCOc1ccc2c(Nc3cc(CC(=O)Nc4cccc(F)c4)[nH]n3)ncnc2c1 [AZD2811] (first compound max 1 µM, 7x7, partner max 1 µM) 0.808

Look at this compound and give its reported combination Emax. CN(CCO)CC[C@H](CSc1ccccc1)Nc1ccc(S(=O)(=O)NC(=O)c2ccc(N3CCC([C@@H](O)c4ccccc4-c4ccc(Cl)cc4)CC3)cc2)cc1S(=O)(=O)C(F)(F)F [AZD4320] + C[C@@H]1COCCN1C2=NC(=NC(=C2)C3(CC3)[S@](=N)(=O)C)C4=C5C=CNC5=NC=C4 [AZD6738] (first compound max 1 µM, 7x7, partner max 10 µM) 0.979

Please give combination Emax for each item listed below.
1. Cc1cc2ncnn2cc1Nc1ncc2c(n1)n(C1CCOCC1)c(=O)n2C [AZD7648] + CCN(CCO)CCCOc1ccc2c(Nc3cc(CC(=O)Nc4cccc(F)c4)[nH]n3)ncnc2c1 [AZD2811] (first compound max 10 µM, 7x7, partner max 1 µM)
2. Cc1cc2ncnn2cc1Nc1ncc2c(n1)n(C1CCOCC1)c(=O)n2C [AZD7648] + C[C@@H]1COCCN1C2=NC(=NC(=C2)C3(CC3)[S@](=N)(=O)C)C4=C5C=CNC5=NC=C4 [AZD6738] (first compound max 10 µM, 7x7, partner max 10 µM)

1: 0.852; 2: 0.981

###

- Test system: IM-9 (Non-Cancerous)
- assay info: combination Emax (second highest fraction inhibited in the dose matrix, 72 h); higher = more inhibition; extreme values may be limits of the assay
I'd be grateful if you could share measured combination Emax for these entries.
Numbers only.

// worked examples, combination Emax included
Look at this molecule and give its reported combination Emax. CN(C)CCCOc1ccc(-c2ccc3ncc4c(c3c2)n(C2CCOCC2)c(=O)n4C)cn1 [AZD0156] + CCN(CCO)CCCOc1ccc2c(Nc3cc(CC(=O)Nc4cccc(F)c4)[nH]n3)ncnc2c1 [AZD2811] (first compound max 1 µM, 7x7, partner max 1 µM) 0.944

Look at this molecule and give its reported combination Emax. C[C@@H](c1ccc2nccn2c1)n1nnc2ncc(-c3cnn(C)c3)nc21 [Savolitinib] + CC1(C)CCC(CN2CCN(c3ccc(C(=O)NS(=O)(=O)c4ccc(NCC5CCOCC5)c([N+](=O)[O-])c4)c(Oc4cnc5[nH]ccc5c4)c3)CC2)=C(c2ccc(Cl)cc2)C1 [Venetoclax] (first compound max 1 µM, 7x7, partner max 1 µM) 0.385

Look at this molecule and give its reported combination Emax. Cc1cc2ncnn2cc1Nc1ncc2c(n1)n(C1CCOCC1)c(=O)n2C [AZD7648] + COc1cc([C@@H]2c3cc4c(cc3[C@@H](O[C@@H]3O[C@@H]5CO[C@@H](C)O[C@H]5[C@H](O)[C@H]3O)[C@H]3COC(=O)[C@H]23)OCO4)cc(OC)c1O [Etoposide] (first compound max 10 µM, 7x7, partner max 10 µM) 1

--- query ---
Look at this molecule and give its reported combination Emax. COc1cccc(OCCCN)c1-c1cc(Nc2cnc(C#N)cn2)n[nH]1 [Prexasertib] + C=CCn1c(=O)c2cnc(Nc3ccc(N4CCN(C)CC4)cc3)nc2n1-c1cccc(C(C)(C)O)n1 [AZD1775] (first compound max 1 µM, partner max 1 µM) 1

###

I'd be grateful if you could share measured Bliss excess for these entries.
- Tested on: SW620 (Colorectal Carcinoma);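 also: after 72 h of two-drug dosing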
- assay info: Bliss excess, mean over the matrix (fraction); higher = more synergy
Give bare numbers.

// worked examples, Bliss excess included
What is its Bliss excess for SW620 (Colorectal Carcinoma)? Entry: COc1nnc2ccc(N3CCC(c4ccc(OCCN5CCN(C)C(=O)[C@H]5C)cc4)CC3)nn12 [AZD5153] + Cn1cnc2c(F)c(Nc3ccc(Br)cc3Cl)c(C(=O)NOCCO)cc21 [Selumetinib] (first compound max 1 µM, 7x7, partner max 10 µM) -0.0083

What is its Bliss excess for SW620 (Colorectal Carcinoma)? Entry: Cc1c2c(nn1C)CSCc1cc(n(C)n1)CSc1cc(c3ccccc3c1)OCCCc1c(C(=O)O)n(C)c3c-2c(Cl)ccc13 [AZD5991] + C[C@@H](Nc1cc(F)cc(F)c1)c1cc(C(=O)N(C)C)cc2c(=O)cc(N3CCOCC3)oc12 [AZD8186] (first compound max 1 µM, 7x7, partner max 3 µM) -0.0298

What is its Bliss excess for SW620 (Colorectal Carcinoma)? Entry: NC1(C(=O)N[C@@H](CCO)c2ccc(Cl)cc2)CCN(c2ncnc3[nH]ccc23)CC1 [Capivasertib] + C[C@@H]1COCCN1C2=NC(=NC(=C2)C3(CC3)[S@](=N)(=O)C)C4=C5C=CNC5=NC=C4 [AZD6738] (first compound max 10 µM, 7x7, partner max 10 µM) -0.0475

--- query ---
What is its Bliss excess for SW620 (Colorectal Carcinoma)? Entry: NC1(C(=O)N[C@@H](CCO)c2ccc(Cl)cc2)CCN(c2ncnc3[nH]ccc23)CC1 [Capivasertib] + Cn1cnc2c(F)c(Nc3ccc(Br)cc3Cl)c(C(=O)NOCCO)cc21 [Selumetinib] (first compound max 10 µM, 7x7, partner max 10 µM) 0.0186

###

- Test system: RH-41 (Rhabdomyosarcoma)
- assay info: combination Emax (second highest fraction inhibited in the dose matrix, 72 h); higher = more inhibition; extreme values may be limits of the assay
measured quantity: combination Emax
Give bare numbers.

Look at this compound and give its reported combination Emax. CC1(C)CCC(CN2CCN(c3ccc(C(=O)NS(=O)(=O)c4ccc(NCC5CCOCC5)c([N+](=O)[O-])c4)c(Oc4cnc5[nH]ccc5c4)c3)CC2)=C(c2ccc(Cl)cc2)C1 [Venetoclax] + CCN(CCO)CCCOc1ccc2c(Nc3cc(CC(=O)Nc4cccc(F)c4)[nH]n3)ncnc2c1 [AZD2811] (first compound max 1 µM, 7x7, partner max 1 µM) 0.418

Look at this compound and give its reported combination Emax. CC1(C)CCC(CN2CCN(c3ccc(C(=O)NS(=O)(=O)c4ccc(NCC5CCOCC5)c([N+](=O)[O-])c4)c(Oc4cnc5[nH]ccc5c4)c3)CC2)=C(c2ccc(Cl)cc2)C1 [Venetoclax] + Cc1cc2ncnn2cc1Nc1ncc2c(n1)n(C1CCOCC1)c(=O)n2C [AZD7648] (first compound max 1 µM, 7x7, partner max 10 µM) 0.608

Look at this compound and give its reported combination Emax. Cc1c2c(nn1C)CSCc1cc(n(C)n1)CSc1cc(c3ccccc3c1)OCCCc1c(C(=O)O)n(C)c3c-2c(Cl)ccc13 [AZD5991] + Cn1cnc2c(F)c(Nc3ccc(Br)cc3Cl)c(C(=O)NOCCO)cc21 [Selumetinib] (first compound max 1 µM, 7x7, partner max 3 µM) 1

Look at this compound and give its reported combination Emax. Cc1cc2ncnn2cc1Nc1ncc2c(n1)n(C1CCOCC1)c(=O)n2C [AZD7648] + C=CCn1c(=O)c2cnc(Nc3ccc(N4CCN(C)CC4)cc3)nc2n1-c1cccc(C(C)(C)O)n1 [AZD1775] (first compound max 10 µM, partner max 1 µM) 0.927

Please give combination Emax for each item listed below.
1. CCN(CCO)CCCOc1ccc2c(Nc3cc(CC(=O)Nc4cccc(F)c4)[nH]n3)ncnc2c1 [AZD2811] + C[C@@H]1COCCN1C2=NC(=NC(=C2)C3(CC3)[S@](=N)(=O)C)C4=C5C=CNC5=NC=C4 [AZD6738] (first compound max 1 µM, 7x7, partner max 10 µM)
2. CC1(C)CCC(CN2CCN(c3ccc(C(=O)NS(=O)(=O)c4ccc(NCC5CCOCC5)c([N+](=O)[O-])c4)c(Oc4cnc5[nH]ccc5c4)c3)CC2)=C(c2ccc(Cl)cc2)C1 [Venetoclax] + C[C@@H]1COCCN1C2=NC(=NC(=C2)C3(CC3)[S@](=N)(=O)C)C4=C5C=CNC5=NC=C4 [AZD6738] (first compound max 1 µM, 7x7, partner max 10 µM)
3. Cc1c2c(nn1C)CSCc1cc(n(C)n1)CSc1cc(c3ccccc3c1)OCCCc1c(C(=O)O)n(C)c3c-2c(Cl)ccc13 [AZD5991] + CCN(CCO)CCCOc1ccc2c(Nc3cc(CC(=O)Nc4cccc(F)c4)[nH]n3)ncnc2c1 [AZD2811] (first compound max 1 µM, 7x7, partner max 1 µM)
4. COc1nnc2ccc(N3CCC(c4ccc(OCCN5CCN(C)C(=O)[C@H]5C)cc4)CC3)nn12 [AZD5153] + Cc1c2c(nn1C)CSCc1cc(n(C)n1)CSc1cc(c3ccccc3c1)OCCCc1c(C(=O)O)n(C)c3c-2c(Cl)ccc13 [AZD5991] (first compound max 1 µM, 7x7, partner max 1 µM)
5. Cc1nc(Nc2ncc(C(=O)Nc3c(C)cccc3Cl)s2)cc(N2CCN(CCO)CC2)n1 [Dasatinib] + CC(=O)Nc1cccc(-n2c(=O)n(C3CC3)c(=O)c3c(Nc4ccc(I)cc4F)n(C)c(=O)c(C)c32)c1 [Trametinib] (first compound max 2 µM, 7x7, partner max 1 µM)
6. C=CCn1c(=O)c2cnc(Nc3ccc(N4CCN(C)CC4)cc3)nc2n1-c1cccc(C(C)(C)O)n1 [AZD1775] + C1CN(CCC1(C(=O)N[C@@H](CCO)C2=CC=C(C=C2)Cl)N)C3=NC=NC4=C3C=CN4 [Capivasertib] (first compound max 3 µM, partner max 3 µM)

[0.706, 0.855, 1, 1, 0.443, 0.801]

Please give combination Emax for each item listed below.
1. CN(CCO)CC[C@H](CSc1ccccc1)Nc1ccc(S(=O)(=O)NC(=O)c2ccc(N3CCC([C@@H](O)c4ccccc4-c4ccc(Cl)cc4)CC3)cc2)cc1S(=O)(=O)C(F)(F)F [AZD4320] + CCN(CCO)CCCOc1ccc2c(Nc3cc(CC(=O)Nc4cccc(F)c4)[nH]n3)ncnc2c1 [AZD2811] (first compound max 1 µM, 7x7, partner max 1 µM)
2. NC1(C(=O)N[C@@H](CCO)c2ccc(Cl)cc2)CCN(c2ncnc3[nH]ccc23)CC1 [Capivasertib] + COc1nnc2ccc(N3CCC(c4ccc(OCCN5CCN(C)C(=O)[C@H]5C)cc4)CC3)nn12 [AZD5153] (first compound max 10 µM, 7x7, partner max 1 µM)
3. CC1(C)CCC(CN2CCN(c3ccc(C(=O)NS(=O)(=O)c4ccc(NCC5CCOCC5)c([N+](=O)[O-])c4)c(Oc4cnc5[nH]ccc5c4)c3)CC2)=C(c2ccc(Cl)cc2)C1 [Venetoclax] + C[C@@H](Nc1cc(F)cc(F)c1)c1cc(C(=O)N(C)C)cc2c(=O)cc(N3CCOCC3)oc12 [AZD8186] (first compound max 1 µM, 7x7, partner max 3 µM)

1: 0.828; 2: 1; 3: 0.491
